Biological target: Bone morphogenetic protein 1 (Homo sapiens, UniProt P13497)
Sequence (P13497 whole entry): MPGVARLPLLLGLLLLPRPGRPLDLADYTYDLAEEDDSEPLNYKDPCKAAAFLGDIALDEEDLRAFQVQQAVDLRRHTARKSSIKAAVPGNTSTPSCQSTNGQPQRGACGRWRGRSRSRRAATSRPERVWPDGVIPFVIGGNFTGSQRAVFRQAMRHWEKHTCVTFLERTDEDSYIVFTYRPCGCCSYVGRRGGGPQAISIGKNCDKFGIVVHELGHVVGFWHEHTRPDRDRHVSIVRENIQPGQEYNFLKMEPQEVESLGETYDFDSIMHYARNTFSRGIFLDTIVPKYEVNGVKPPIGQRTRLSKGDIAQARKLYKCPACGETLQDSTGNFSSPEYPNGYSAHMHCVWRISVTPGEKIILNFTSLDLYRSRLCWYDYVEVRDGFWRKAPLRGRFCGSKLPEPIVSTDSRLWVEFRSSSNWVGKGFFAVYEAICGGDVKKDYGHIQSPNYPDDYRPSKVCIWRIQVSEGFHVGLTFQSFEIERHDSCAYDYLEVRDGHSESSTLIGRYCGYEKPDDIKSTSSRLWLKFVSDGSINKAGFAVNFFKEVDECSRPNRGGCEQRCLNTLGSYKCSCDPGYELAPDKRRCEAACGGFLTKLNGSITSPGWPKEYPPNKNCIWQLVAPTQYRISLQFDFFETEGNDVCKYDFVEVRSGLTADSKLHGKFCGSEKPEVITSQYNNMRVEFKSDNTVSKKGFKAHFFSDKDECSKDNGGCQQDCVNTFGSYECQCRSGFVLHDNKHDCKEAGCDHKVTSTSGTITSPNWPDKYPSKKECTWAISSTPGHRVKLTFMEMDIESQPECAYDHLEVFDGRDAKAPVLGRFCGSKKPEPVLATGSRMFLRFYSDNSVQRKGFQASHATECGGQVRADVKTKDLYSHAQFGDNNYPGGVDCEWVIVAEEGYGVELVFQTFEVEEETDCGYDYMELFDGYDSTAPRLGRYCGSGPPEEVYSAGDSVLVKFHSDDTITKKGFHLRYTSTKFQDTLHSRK
pKi: −log10 of the molar value.
property: pKi

Examples from the recorded data:
COc1ccc(S(=O)(=O)N(Cc2ccc3c(c2)OCO3)[C@H](CCC(=O)N2CCN(Cc3ccncc3)CC2)C(=O)NO)cc1
< 6.00
COC(=O)CC[C@H](C(=O)NO)N(Cc1ccc(C(F)(F)F)cc1)S(=O)(=O)c1ccc(OC)cc1
< 4.40

Okay, next one:
COC(=O)CC[C@H](C(=O)NO)N(Cc1ccc(Br)cc1)S(=O)(=O)c1ccc(OC)cc1 yielded pKi of < 4.40
